molecular target: Sterol O-acyltransferase 1 (Rattus norvegicus); assay: In vitro inhibitory activity against acyl-coenzyme A:cholesterol acyltransferase 1 from rat hepatic microsomes.
Sequence (O70536 whole entry): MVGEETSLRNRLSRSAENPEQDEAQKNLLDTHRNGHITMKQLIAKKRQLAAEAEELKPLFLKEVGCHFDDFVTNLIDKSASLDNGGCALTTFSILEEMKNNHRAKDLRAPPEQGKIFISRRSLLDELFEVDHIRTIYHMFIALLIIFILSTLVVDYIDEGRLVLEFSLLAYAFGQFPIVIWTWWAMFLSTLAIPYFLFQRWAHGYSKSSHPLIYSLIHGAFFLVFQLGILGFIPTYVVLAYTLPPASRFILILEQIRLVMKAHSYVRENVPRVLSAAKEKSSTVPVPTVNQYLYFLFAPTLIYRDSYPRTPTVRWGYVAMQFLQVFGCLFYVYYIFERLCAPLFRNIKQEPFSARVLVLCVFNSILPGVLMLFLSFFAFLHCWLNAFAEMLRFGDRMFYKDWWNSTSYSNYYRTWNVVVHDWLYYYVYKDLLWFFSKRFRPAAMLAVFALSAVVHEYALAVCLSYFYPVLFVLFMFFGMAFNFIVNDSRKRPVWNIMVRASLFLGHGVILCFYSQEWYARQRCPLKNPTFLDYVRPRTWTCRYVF
ENDPOINT_LABEL: log10(IC50) (log10 of the value in nM)

INSERT INTO assay_data (item_smiles, endpoint_label, value_observed) VALUES
  ('O=C(N[C@@H]1c2ccc(O)cc2CC[C@@H]1c1ccccc1)C(c1ccccc1)c1ccccc1', 'log10(IC50)', 2.95),
  ('COc1ccc([C@H]2CCCC[C@H]2NC(=O)C(c2ccccc2)c2ccccc2)cc1', 'log10(IC50)', 3.48),
  ('O=C(N[C@@H]1c2cc(O)ccc2CC[C@@H]1c1ccccc1)C(c1ccccc1)c1ccccc1', 'log10(IC50)', 3.38),
  ('O=C(N[C@H]1c2cc(O)ccc2CC[C@@H]1c1ccccc1)C(c1ccccc1)c1ccccc1', 'log10(IC50)', 3.11),
  ('COc1ccc([C@H]2CCCC[C@@H]2NC(=O)C(c2ccccc2)c2ccccc2)cc1', 'log10(IC50)', 2.00),
  ('O=C(N[C@H]1c2ccc(O)cc2CC[C@@H]1c1ccccc1)C(c1ccccc1)c1ccccc1', 'log10(IC50)', 2.95),
  ('O=C(N[C@@H]1CCCC[C@@H]1c1ccc(O)cc1)C(c1ccccc1)c1ccccc1', 'log10(IC50)', 3.48),
  ('O=C(N[C@H]1c2ccccc2CC[C@@H]1c1cccc(O)c1)C(c1ccccc1)c1ccccc1', 'log10(IC50)', 2.85),
  ('O=C(N[C@H]1c2ccccc2C[C@@H]1c1ccc(O)cc1)C(c1ccccc1)c1ccccc1', 'log10(IC50)', 2.36);

FYI, the data here is from ChEMBL document CHEMBL1129040.
